SYSTEM: chicken Estrogen Receptor (ERa), ESR1 (gene 396099) (UniProt P06212)
Sequence (P06212 whole entry, looked up): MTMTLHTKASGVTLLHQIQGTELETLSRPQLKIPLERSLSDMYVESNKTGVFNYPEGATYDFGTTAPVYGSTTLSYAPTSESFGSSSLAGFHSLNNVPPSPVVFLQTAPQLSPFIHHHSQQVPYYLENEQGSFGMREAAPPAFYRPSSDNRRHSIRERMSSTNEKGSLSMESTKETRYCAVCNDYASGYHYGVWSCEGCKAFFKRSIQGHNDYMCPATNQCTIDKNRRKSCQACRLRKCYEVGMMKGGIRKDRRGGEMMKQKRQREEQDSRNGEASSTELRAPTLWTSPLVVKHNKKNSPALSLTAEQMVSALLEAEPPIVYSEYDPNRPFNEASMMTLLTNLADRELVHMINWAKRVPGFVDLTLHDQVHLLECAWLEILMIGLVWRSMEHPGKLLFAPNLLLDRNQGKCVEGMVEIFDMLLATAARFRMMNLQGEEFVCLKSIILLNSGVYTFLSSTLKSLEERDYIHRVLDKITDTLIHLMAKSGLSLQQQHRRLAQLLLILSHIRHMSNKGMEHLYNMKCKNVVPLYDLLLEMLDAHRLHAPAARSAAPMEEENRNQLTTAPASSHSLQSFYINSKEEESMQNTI
ASSAY_SUMMARY: ATG_chERa_XSP2: Attagene TRANS-FACTORIAL Multi-Species (XSP2) HepG2 Assay for chicken Estrogen Receptor (ERa) (AID 2283817);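 further: actives raise reporter signal above DMSO so AC50 reflects ER activation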
Inconclusive results are not listed. Active and inactive are the calls of the source. How the source made its calls: active means hit-call score of the fitted dose curve at least 0.9, where 1 is the maximum; inconclusive means response in the unintended direction; inactive means score below 0.9.
A correct response names exactly one class from 1 = active, 0 = inactive

See these solved cases before continuing.
>>> print(df.to_string())
                           structure_string  class_name
0  CC(C)Oc1cc(-n2nc(C(C)(C)C)oc2=O)c(Cl)cc1Cl           1
1  CCCN(CCC)c1c([N+](=O)[O-])cc(S(N)(=O)=O)cc1[N+](=O)[O-]           0
2      CCOP(=S)(OCC)SCn1c(=O)oc2cc(Cl)ccc21           0

Exercise: Hey, what did the test say about COc1ccc(C(c2ccc(OC)cc2)C(Cl)(Cl)Cl)cc1 ?
Key: 1

Exercise: Hey, what did the test say about CCCCOC(=O)c1ccccc1C(=O)OCCCC ?
Key: 1

* * *

Read-out: Signal transducer and activator of transcription 3 (Homo sapiens)
ASSAY_SUMMARY: LTEA_HepaRG_STAT3: Life Technologies and Expression Analysis (LTEA) Assay for Signal transducer and activator of transcription (STAT3) using HepaRG (AID 2283529)
TEST_PARAMETERS: mRNA level, 48 h; actives raise or lower the signal
Method: LTEA_HepaRG is a cell based, multiplexed-readout assay that uses HepaRG, a human liver cell line, with measurements taken at 48 hours after chemical dosing on a 96-well plate.LTEA_HepaRG_STAT3 is one of 102 assay component(s) measured in the LTEA HepaRG cell culture assay. It is a marker of Cell proliferation, survival, death.Data from the assay component LTEA_HepaRG_STAT3 was analyzed into 1 endpoint. […]
Active and inactive are the calls of the source. Rule for the calls: active = hit-call score of the fitted dose curve at least 0.9, where 1 is the maximum; inactive = score below 0.9.
A correct response names exactly one class from true = active, false = inactive

                                   compound  class_name
0  C#CCOS(=O)OC1CCCCC1Oc1ccc(C(C)(C)C)cc1 (configuration not stated)        true
1  CS/C(C)=N/OC(=O)N(C)SN(C)C(=O)O/N=C(\C)SC       false
2    COc1ccc(C(c2ccc(OC)cc2)C(Cl)(Cl)Cl)cc1       false

Exercise: Hey, what did the test say about CO/C=C(/C(=O)OC)c1ccccc1Oc1cc(Oc2ccccc2C#N)ncn1 ?
Key: false

Exercise: Hey, what did the test say about CCCCNC(=O)n1c(NC(=O)OC)nc2ccccc21 ?
Key: false

Exercise: Hey, what did the test say about C=CC1(C)OC(=O)N(c2cc(Cl)cc(Cl)c2)C1=O (configuration not stated) ?
Key: false

* * *

Test system: zebrafish Peroxisome Proliferator-activated Receptor gamma (PPARg), gene 557037
ASSAY_SUMMARY: ATG_zfPPARg_XSP1: Attagene TRANS-FACTORIAL Multi-Species (XSP1) HepG2 Assay for zebrafish Peroxisome Proliferator-activated Receptor gamma (PPARg) (AID 2283801)
Inconclusive results are not listed. Activity calls are given as the source filed them. Rule for the calls: active = hit-call score of the fitted dose curve at least 0.9, where 1 is the maximum; inconclusive = response in the unintended direction; inactive = score below 0.9.
A correct response names exactly one class from active, inactive

See these solved cases before continuing.
>>> print(df.to_string())
                                   compound  class_name
0  COC(=O)N(OC)c1ccccc1COc1ccn(-c2ccc(Cl)cc2)n1    inactive
1  CCCN(CCC)c1c([N+](=O)[O-])cc(S(N)(=O)=O)cc1[N+](=O)[O-]    inactive
2  CCCC1COC(Cn2cncn2)(c2ccc(Cl)cc2Cl)O1 (stereo unspecified)    inactive
3  OC(c1ccc(Cl)cc1)(c1cncnc1)c1ccccc1Cl (stereo unspecified)      active
4  CC(C)(C)c1ccc(CSc2cnn(C(C)(C)C)c(=O)c2Cl)cc1    inactive

Moving on to another compound below.
Exercise: Hey, what did the test say about C#CCOS(=O)OC1CCCCC1Oc1ccc(C(C)(C)C)cc1 (stereo unspecified) ?
Key: active

// provenance: PubChem BioAssay (EPA / NIEHS)
